# Method Summary: NCI Yeast Anticancer Drug Screen. Data for the cln2 rad14 strain (AID 165);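 further: 0% = growth equal to vehicle treated cultures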
# Experimental Parameters: S. cerevisiae cln2 rad14 strain, at 50.0 µM, stronger effect = higher value
Compounds without any hit were thinned out: in the full panel of roughly 79,000, 15% have a hit.
Test Readout: growth inhibition (%)

> print(dat)
                                    compound  meas.value
 1  CC(C)c1ccc2c(c1)CC[C@H]1[C@](C)(C(=O)O)CCC[C@]21C        91.3
 2                          COc1cccc(C=O)c1O       -23.5
 3                   CCNC(=S)NC1CCCCCCCCCCC1        20.8
 4  N#CC(C(=O)C(N)=O)c1ccc(Cl)cc1Cl (configuration not stated)        91.3
 5  O=[N+]([O-])c1ccc2c(c1)/C(=N/O)c1ccccc1-2        46.2
 6        Cc1c2ccccc2c(CO)c2cc(F)c3ccccc3c12        31.9
 7  CCCCCCCCN(CCCCCCCC)CC(O)c1cc(-c2ccc(Cl)cc2)nc2c(Cl)cccc12 (configuration not stated)        45.4
 8  COc1cccc2c1OC(c1cccc3ccccc13)C([N+](=O)[O-])=C2 (configuration not stated)          47
 9  Cc1cc(Br)cc(C)c1NC(=O)C(=O)C(C(=O)c1ccc2ccccc2c1)C1OC(=O)c2ccccc21 (configuration not stated)          70
10             O=Cc1cc2c(s1)C(=O)c1sccc1C2=O        91.7
11              CCOC(=O)Nc1nc2ccc(SC#N)cc2s1        57.5
12  CC(C)(C)N1C(=O)C(Cl)(C#N)C1c1ccccc1 (configuration not stated)        19.9

* * *

# Method Summary: NCI Yeast Anticancer Drug Screen. Data for the mlh1 rad18 strain (AID 175)
# Experimental Parameters: S. cerevisiae mlh1 rad18 strain growth inhibition; at 5.0 µM (retest, dose inferred, filed as 0.5); stronger effect = higher value
Compounds without any hit were thinned out: in the full panel of roughly 79,000, 15% have a hit. Activity calls are given as the source filed them. No stated cut-off is given here; in the data, active means growth inhibition above about 70%; inactive means the rest.
growth inhibition by entry:
Test Readout: growth inhibition

> print(dat)
                                    compound       test.readout       meas.value
 1  CC(=O)c1c(-c2ccco2)c(C#N)c(=S)n(C2OC(CO)C(O)C(O)C2O)c1-c1ccccc1 (centres undefined)  growth inhibition  -25% (inactive)
 2  Cc1ccc(C(=O)CC(O)(C(F)(F)F)C(F)(F)F)cc1[N+](=O)[O-]  growth inhibition    9% (inactive)
 3  O=C(Nc1ccc(Cl)cc1)OCCOCCOC(=O)Nc1ccc(Cl)cc1  growth inhibition    4% (inactive)
 4              O=C(Cl)c1ccc(N=Nc2ccccc2)cc1  growth inhibition    3% (inactive)
 5  CC(c1ccccc1)C(C(=O)O)(c1ccccc1)c1ccccc1 (centres undefined)  growth inhibition     84% (active)
 6  CCOC(=O)Cc1csc2[n+]1C(=O)/C(=C/c1ccc(OC)c(OC)c1)S2  growth inhibition  -17% (inactive)
 7  CCCN(CCC)Cc1cc2c(cc1O)CC[C@@H]1[C@@H]2CC[C@]2(C)C(=O)CC[C@@H]12  growth inhibition     99% (active)
 8  C[N+](C)(C)CC(=O)N/N=C(\C(=O)NC1=C(Cl)C(=O)c2ccccc2C1=O)C(C#N)c1nc(-c2ccc([N+](=O)[O-])cc2)cs1 (centres undefined)  growth inhibition   13% (inactive)
 9                      N#CCN1CCCCCc2ccccc21  growth inhibition  -18% (inactive)
10  CCOC(=O)Cn1c(=O)c2nc(SC)sc2n(-c2ccc(C)cc2)c1=S  growth inhibition    2% (inactive)
11  O=C(O)C1C2CC3CC(C2)CC1C3 (centres undefined)  growth inhibition    0% (inactive)
12                 CN(C)N=Nc1ccc(NC(N)=O)cc1  growth inhibition   25% (inactive)
13  CCOC(=O)C1=C(C)Oc2cc3c(cc2C1c1cc(OC)c(OC)c(OC)c1)OCO3 (centres undefined)  growth inhibition   12% (inactive)
14        c1ccc2nc(C[n+]3cccc4ccccc43)ccc2c1  growth inhibition     73% (active)
15         Clc1ccc(Oc2nc(Cl)nc3[nH]ncc23)cc1  growth inhibition   10% (inactive)
16              COc1ccc(C(=O)Nc2ccccc2OC)cc1  growth inhibition   18% (inactive)
17                    COc1cccc2c1N[S@](=O)S2  growth inhibition  -11% (inactive)
18  Cc1ccc(SC2=C(N(C)C)C(=O)c3ccccc3C2=O)cc1  growth inhibition   -3% (inactive)
19  CC(=O)OC(CCl)C(C)[N+](=O)[O-] (centres undefined)  growth inhibition    5% (inactive)
20                C/C(=C\c1ccccc1Cl)c1ccccn1  growth inhibition   10% (inactive)
21               O=C(O)C/C(=C\c1ccco1)C(=O)O  growth inhibition   -4% (inactive)
22  O=c1cc(-c2ccccc2)oc2ccc(-c3ccc4oc(-c5ccccc5)cc(=O)c4c3)cc12  growth inhibition   13% (inactive)
23                 CSc1cc2c(cc1N)Cc1ccccc1-2  growth inhibition    6% (inactive)
24  COc1ccc(/C(Cl)=C(\C=O)c2ccc(Cl)c(Cl)c2)cc1  growth inhibition   27% (inactive)
